Hey, just so you know, these numbers are from PubChem BioAssay (NCI).

Assay: NCI Yeast Anticancer Drug Screen. Data for the sgs1 mgt1 strain (AID 161);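 further: 0% = growth of cultures given vehicle only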
Conditions: S. cerevisiae sgs1 mgt1 strain, at 50.0 µM, stronger effect = higher value
Method: Growth inhibition of yeast strains with defined genetic alterations is measured as a screen for potential anti-cancer activity. Selected strains with alterations in DNA damage repair or cell cycle control were exposed to compounds and growth inhibition was measured relative to vehicle treated controls. The strain used in this assay is sgs1 mgt1
This is part of a sample that, as a whole, favours compounds with a hit. Of some 79,000 tested, about 15% had one in any assay.
Parameter: growth inhibition (%)

# Molecule, Parameter, Quantitative Result
rows = [
    ("COC(=O)/C=C/C(=N/N(C)c1ccccc1)c1ccccc1", "growth inhibition", 2.75),
    ("c1cc(CNCCN2CCNCC2)ccn1", "growth inhibition", -3.7),
    ("Cc1c(-c2ccccc2)c(=O)oc2cc(O)ccc12", "growth inhibition", 9.3),
    ("OC(c1cc(C2CCCCC2)nc2ccccc12)C1CCCCN1 (centres undefined)", "growth inhibition", 8.85),
]
